Target: T1, BKV serotype I infectious virus (VP1) (BK virus serotype I, UniProt P03088 1-362)
T1 sequence (looked up): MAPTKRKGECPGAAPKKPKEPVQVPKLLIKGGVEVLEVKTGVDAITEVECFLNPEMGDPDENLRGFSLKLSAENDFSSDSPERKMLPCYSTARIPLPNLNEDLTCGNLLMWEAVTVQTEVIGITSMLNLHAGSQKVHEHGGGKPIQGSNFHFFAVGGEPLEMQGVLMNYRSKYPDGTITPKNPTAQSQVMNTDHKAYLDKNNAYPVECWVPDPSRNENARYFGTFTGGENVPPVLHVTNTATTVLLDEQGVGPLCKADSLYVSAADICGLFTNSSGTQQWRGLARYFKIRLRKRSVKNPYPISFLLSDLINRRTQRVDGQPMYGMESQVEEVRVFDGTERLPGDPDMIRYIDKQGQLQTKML
Assay: cell-based or functional assay
quantityMeasured: neutralization EC50 (ng/mL)
API: value field is a number in ng/mL; no unit string.

Known results for binders:
Write down neutralization EC50 measured for item P8D11A (antibody, V domains shown) VH: QVQLVESGGTLVQPGGSLRLSCAASGFTFSNYWMTWVRQAPGKGLEWVANIKKDGSEKYYVDSVRGRFTISRDNAKNSLFLQMNSLRPEDTAVYFCATVRSGRYFALDDWGQGTLVTVSS VL: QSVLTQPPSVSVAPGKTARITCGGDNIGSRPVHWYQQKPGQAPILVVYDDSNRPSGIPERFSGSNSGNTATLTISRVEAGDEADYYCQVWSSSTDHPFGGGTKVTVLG
5

Write down neutralization EC50 measured for item P7G11 (antibody, human IgG1, lambda, V domains shown) VH: QVQLQESGPGLAKPSQTLSLTCSVSGGSISSGGYSWSWIRQPPGKGLEYIGYIYYRGTTYYNPSLKSRITMSVDTSNNQISLKLTSVTAADTAVYYCARALTHLVGVGWFDPWGQGTMVTVSS VL: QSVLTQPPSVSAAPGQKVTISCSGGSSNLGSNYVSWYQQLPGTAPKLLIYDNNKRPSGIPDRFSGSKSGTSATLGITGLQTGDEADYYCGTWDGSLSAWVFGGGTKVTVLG
7

Write down neutralization EC50 measured for item NEG447A (antibody, human IgG1, lambda, V domains shown) VH: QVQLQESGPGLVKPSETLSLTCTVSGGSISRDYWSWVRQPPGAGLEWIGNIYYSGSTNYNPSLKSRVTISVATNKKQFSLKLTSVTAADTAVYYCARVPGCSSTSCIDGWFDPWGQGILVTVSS VL: QSVLTQPPSVSAAPGQKVTISCSGSSSNIGNTYVSWYQQLPGTAPKLLIYDNNKRPSGIPDRFSGSKSGTSATLGITGLQTGDEADYYCGTWDSSLSAWVFGGGTRLTVLG
0.1

Write down neutralization EC50 measured for item P7G11A (antibody, human IgG1, lambda, V domains shown) VH: QVQLQESGPGLVKPSQTLSLTCTVSGGSISSGGYSWSWIRQPPGKGLEYIGYIYYRGTTYYNPSLKSRVTISVDTSNNQISLKLSSVTAADTAVYYCARALTHLVGVGWFDPWGQGTMVTVSS VL: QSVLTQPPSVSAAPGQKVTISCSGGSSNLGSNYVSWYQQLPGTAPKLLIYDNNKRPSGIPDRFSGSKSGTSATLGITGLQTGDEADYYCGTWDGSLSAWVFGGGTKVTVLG
0.8

Write down neutralization EC50 measured for item P8D11C (antibody, V domains shown) VH: QVQLVESGGTLVQPGGSLRLSCAASGFTFQNYWMTWVRQAPGKGLEWVANIKKDGSEKYYVDSVRGRFTISRDNAKNSLFLQMNSLRPEDTAVYFCATVRSGRYFALDDWGQGTLVTVSS VL: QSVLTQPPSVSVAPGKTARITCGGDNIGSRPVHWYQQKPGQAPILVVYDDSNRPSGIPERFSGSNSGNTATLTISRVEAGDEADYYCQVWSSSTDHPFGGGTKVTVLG
0.3

Let us examine a further case.
Write down neutralization EC50 measured for item P165E2 (antibody, human IgG1, lambda, V domains shown) VH: QVQLQESGPGLVKPSETLSLTCTVSGGSISRDYWTWVRQPPGEGLEWIGNIYYSGSTNYNPSLKSRVTISVAASKKQFSLKLTSVTAADTAVYYCARVPGCSSTSCIDGWFDPWGQGILVTVSS VL: QSVLTQPPSLSAAPGQRVTISCSGSSSNIGNTYVSWYQQLPGTAPKLLIYDNNKRPSGIPGRFSGSKSGTSATLGITGLQTGDEAAYYCGTWDSSLSAWVFGGGTRLTVLG
9
